- Target: TEBP-2-His5 (Caenorhabditis elegans) (UniProt Q22429)
- Sequence (Q22429 entry or part of it): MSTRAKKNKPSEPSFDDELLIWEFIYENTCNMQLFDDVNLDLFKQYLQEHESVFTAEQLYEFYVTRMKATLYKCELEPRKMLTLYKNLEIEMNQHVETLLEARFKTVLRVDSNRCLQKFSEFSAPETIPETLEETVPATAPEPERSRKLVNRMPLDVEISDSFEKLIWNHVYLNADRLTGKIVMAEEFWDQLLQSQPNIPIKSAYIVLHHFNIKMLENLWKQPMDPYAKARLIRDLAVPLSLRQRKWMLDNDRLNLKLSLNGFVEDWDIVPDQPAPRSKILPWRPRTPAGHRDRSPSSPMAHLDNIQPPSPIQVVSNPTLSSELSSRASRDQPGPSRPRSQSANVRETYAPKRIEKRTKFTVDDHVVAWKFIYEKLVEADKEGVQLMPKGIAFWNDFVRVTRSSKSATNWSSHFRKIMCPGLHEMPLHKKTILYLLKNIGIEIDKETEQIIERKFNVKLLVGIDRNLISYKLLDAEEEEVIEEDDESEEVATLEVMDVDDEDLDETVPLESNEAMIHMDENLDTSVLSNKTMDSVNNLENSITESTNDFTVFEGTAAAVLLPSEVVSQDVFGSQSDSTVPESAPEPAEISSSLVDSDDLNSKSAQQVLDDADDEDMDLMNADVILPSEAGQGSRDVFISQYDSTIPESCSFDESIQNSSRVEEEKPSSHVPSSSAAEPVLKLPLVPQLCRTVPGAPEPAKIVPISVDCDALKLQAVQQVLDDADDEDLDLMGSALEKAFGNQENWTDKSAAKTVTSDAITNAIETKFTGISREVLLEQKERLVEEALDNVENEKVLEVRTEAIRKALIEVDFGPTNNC
- Measurement notes: fluorescence polarization
- Test conditions: FP: 20 mM HEPES pH 7.0, 100 mM NaCl, 5% glycerol, 20 nM probe, 10 min at RT; pull-down: 50 mM Tris/HCl pH 7.5, 150 mM NaCl, 0.5% NP-40, 5 mM MgCl2, 1 mM DTT …
Value type: Kd (µM)
Your answer is read as µM, so omit the unit and give the number.

CTGTTAGGCTTAGGCTTAG (double strand) [2.5x TTAGGC ds] yielded Kd of 0.0378

The reported numbers originate from paper PMC8113555.
